Test: in vitro
Details: rat, liver microsomes
experimental-readout: metabolised at 0.5 h (%)
Answers are plain numbers, in %.

Answered examples (2):
CC(C)n1c(=O)c(C(=O)NCCCN2CCCCC2)c(O)c2ccsc21 [PRX-03140]: 36.9
COCCCN1CCC(NC(=O)c2cc(Cl)c(N)c3c2OCC3)CC1 [PRUCALOPRIDE]: 36.9

I'm hoping you can list metabolised at 0.5 h for every compound here, please.
1. COCCCN1CCC(CNC(=O)c2cccn3nc(C(C)C)nc23)CC1
2. CC(C)c1nc(C(=O)NCC2C3CN(C4CCOCC4)CC23)n2ccccc12 (stereo not given)
3. OC1(CN2CCC(COc3noc4cccc(O[C@@H]5CCOC5)c34)CC2)CCOCC1 [PF-04995274]

Response given:
1. 23.4
2. 0
3. 87.3

* * *

Provide the reported bioavailability of each item.
Assay: in vivo
Details: Wistar, rat, po, 3 mg/kg

Answered examples (3):
CC(C)c1nc(C(=O)NCC2C3CN(C4CCOCC4)CC23)n2ccccc12 (centres undefined): 15%
COCCCN1CCC(NC(=O)c2cc(Cl)c(N)c3c2OCC3)CC1 [PRUCALOPRIDE]: 84%
CC(C)n1c(=O)c(C(=O)NCCCN2CCCCC2)c(O)c2ccsc21: 2%

Switching to the query record.
Challenge: Which bioavailability value belongs to OC1(CN2CCC(COc3noc4cccc(O[C@@H]5CCOC5)c34)CC2)CCOCC1 ?
Response given: 5.4%

* * *

Provide the reported AUC of each item.
Experiment: in vivo
Conditions: Wistar, rat
The answer consists of two parts: a number and, after it, its unit.

OC1(CN2CCC(COc3noc4cccc(O[C@@H]5CCOC5)c34)CC2)CCOCC1 [PF-04995274]: 94 ng·h/mL
CC(C)c1nc(C(=O)NCC2C3CN(C4CCOCC4)CC23)n2ccccc12 (stereo not drawn): 121 ng·h/mL

Challenge: Which AUC value belongs to COCCCN1CCC(NC(=O)c2cc(Cl)c(N)c3c2OCC3)CC1 [PRUCALOPRIDE] ?
Response given: 828 ng·h/mL

* * *

Test: in vitro
Conditions: human, liver microsomes
experimental-readout: metabolised at 0.5 h (%)
Answers are plain numbers, in %.

I'm hoping you can list metabolised at 0.5 h for every compound here, please.
1. COCCCN1CCC(CNC(=O)c2cccn3nc(C(C)C)nc23)CC1
2. CC(C)n1c(=O)c(C(=O)NCCCN2CCCCC2)c(O)c2ccsc21
3. OC1(CN2CCC(COc3noc4cccc(O[C@@H]5CCOC5)c34)CC2)CCOCC1
4. COCCCN1CCC(NC(=O)c2cc(Cl)c(N)c3c2OCC3)CC1 [PRUCALOPRIDE]
5. CC(C)c1nc(C(=O)NCC2C3CN(C4CCOCC4)CC23)n2ccccc12 (stereo not given)

Response given:
1. 2.7
2. 22.1
3. 71.9
4. 22.1
5. 24.4

* * *

Test: in vivo
Settings: Wistar, rat, po, 3 mg/kg
experimental-readout: Cmax (ng/mL)
One number for each entry, in ng/mL.

Answered examples (2):
COCCCN1CCC(NC(=O)c2cc(Cl)c(N)c3c2OCC3)CC1 [PRUCALOPRIDE]: 285
CC(C)c1nc(C(=O)NCC2C3CN(C4CCOCC4)CC23)n2ccccc12 (stereo not drawn): 60

Switching to the query record.
Challenge: Which Cmax value belongs to OC1(CN2CCC(COc3noc4cccc(O[C@@H]5CCOC5)c34)CC2)CCOCC1 ?
Response given: 85
